# assay-target: Bcl-xL
# test-description: Ki (nM) | Bcl-xL
reported-metric: Ki (nM)
Just the number please, in nM, no unit attached.

response.value for Ac-QWVREIAAGLRLAADNVNAQLER-NH2 [FS1] (field: Ki) = 2720
